Observed pKi for 5-hydroxytryptamine receptor 2A (Rattus norvegicus, UniProt P14842), reported per entry below.
pKi is a log-scale quantity: -log10 of the concentration expressed in molar.

Lookup: pKi / 5-hydroxytryptamine receptor 2A (Rattus norvegicus, UniProt P14842) / Cc1nc2ccccn2c(=O)c1CCN1CCC(=C(c2ccc(F)cc2)c2ccc(F)cc2)CC1 [NSC_159037]
8.22

Continue with NC(N)=NN=Cc1c(Cl)cccc1Cl [Guanabenz]
6.70

====

biological target: Alpha-1A adrenergic receptor (Rattus norvegicus)
Sequence (P43140 whole entry): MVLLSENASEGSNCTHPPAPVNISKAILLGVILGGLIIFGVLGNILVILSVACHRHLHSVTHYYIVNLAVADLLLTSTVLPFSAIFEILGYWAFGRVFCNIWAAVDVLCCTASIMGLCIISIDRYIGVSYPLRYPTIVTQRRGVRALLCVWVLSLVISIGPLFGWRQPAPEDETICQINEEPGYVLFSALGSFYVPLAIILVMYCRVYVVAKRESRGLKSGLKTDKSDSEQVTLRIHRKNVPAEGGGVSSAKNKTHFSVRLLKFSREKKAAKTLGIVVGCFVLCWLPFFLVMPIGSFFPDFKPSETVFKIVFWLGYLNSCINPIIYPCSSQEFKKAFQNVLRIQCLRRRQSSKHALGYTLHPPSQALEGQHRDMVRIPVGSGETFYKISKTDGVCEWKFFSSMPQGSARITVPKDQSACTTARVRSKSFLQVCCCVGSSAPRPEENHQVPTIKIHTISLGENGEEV
Readout label: Ki (nM)
Numeric only. Scale: nM

# get_value(readout= Ki, system= Alpha-1A adrenergic receptor (Rattus norvegicus)) for Cc1nc2ccccn2c(=O)c1CCN1CCC(=C(c2ccc(F)cc2)c2ccc(F)cc2)CC1
257

Also Cn1c(=O)c2c(ncn2CCN2CCC(C(=O)c3ccc(F)cc3)CC2)n(C)c1=O , if possible.
120

Do the same for O=C(c1ccc(F)cc1)C1CCN(CCCCn2c(=O)[nH]c3ccccc3c2=O)CC1 please
1.86

Query Cc1nc2sccn2c(=O)c1CCN1CCC(=C(c2ccc(F)cc2)c2ccc(F)cc2)CC1 next
191
